Biological target: Human immunodeficiency virus type 1 reverse transcriptase (Human immunodeficiency virus 1)
Experiment: Inhibition of HIV1 recombinant reverse transcriptase associated catalytically active RNase H domain assessed as reduction in RNA 5' end directed cleavage using HTS-3 RNA/DNA duplex substrate by fluorescence assay
Simple rule here: IC50 less than 1000 nM is Satisfied, otherwise Not satisfied.

[
  {
    "structure_smiles_string": "O=C1Cc2cc(Cc3ccccc3)ccc2C(=O)N1O",
    "tested_system": "Human immunodeficiency virus type 1 reverse transcriptase (Human immunodeficiency virus 1)",
    "label": "Not satisfied"
  },
  {
    "structure_smiles_string": "O=C1Cc2cc(Cc3ccc(F)cc3)ccc2C(=O)N1O",
    "tested_system": "Human immunodeficiency virus type 1 reverse transcriptase (Human immunodeficiency virus 1)",
    "label": "Not satisfied"
  },
  {
    "structure_smiles_string": "O=C1Cc2cc(Cc3ccc(-c4ccccc4)cc3)ccc2C(=O)N1O",
    "tested_system": "Human immunodeficiency virus type 1 reverse transcriptase (Human immunodeficiency virus 1)",
    "label": "Satisfied"
  },
  {
    "structure_smiles_string": "O=C1Cc2cc(Cc3ccc(-c4ccc(F)cc4F)cc3)ccc2C(=O)N1O",
    "tested_system": "Human immunodeficiency virus type 1 reverse transcriptase (Human immunodeficiency virus 1)",
    "label": "Not satisfied"
  },
  {
    "structure_smiles_string": "O=C1Cc2cc(Cc3ccc(C4CC4)cc3)ccc2C(=O)N1O",
    "tested_system": "Human immunodeficiency virus type 1 reverse transcriptase (Human immunodeficiency virus 1)",
    "label": "Satisfied"
  },
  {
    "structure_smiles_string": "COc1ccc(-c2ccc(Cc3ccc4c(c3)CC(=O)N(O)C4=O)cc2)cc1F",
    "tested_system": "Human immunodeficiency virus type 1 reverse transcriptase (Human immunodeficiency virus 1)",
    "label": "Not satisfied"
  },
  {
    "structure_smiles_string": "NS(=O)(=O)c1ccc(-c2ccc(Cc3ccc4c(c3)CC(=O)N(O)C4=O)cc2)cc1",
    "tested_system": "Human immunodeficiency virus type 1 reverse transcriptase (Human immunodeficiency virus 1)",
    "label": "Satisfied"
  },
  {
    "structure_smiles_string": "O=C1Cc2cc(Cc3ccc(C(F)(F)F)cc3)ccc2C(=O)N1O",
    "tested_system": "Human immunodeficiency virus type 1 reverse transcriptase (Human immunodeficiency virus 1)",
    "label": "Not satisfied"
  },
  {
    "structure_smiles_string": "O=C1Cc2cc(Cc3ccc(-c4ccc(F)cc4)cc3)ccc2C(=O)N1O",
    "tested_system": "Human immunodeficiency virus type 1 reverse transcriptase (Human immunodeficiency virus 1)",
    "label": "Not satisfied"
  }
]

Attribution: ChEMBL document CHEMBL3414532
